assay: Taste tests to determine equivalent sweetness of sweeteners in a salty liquid (Example 4); assay type: in vivo, human
Entries annotated with measured sweetener concentration providing an equivalent sweetness
Answer format: numeric, % implied, no suffix.

{"columns": ["compound", "numeric result"],
 "data": [
  ["OC[C@H]1O[C@H](O[C@]2(CCl)O[C@H](CCl)[C@@H](O)[C@@H]2O)[C@H](O)[C@@H](O)[C@H]1Cl [Sucralose]", 0.05]
]}

**Q:** Report sweetener concentration providing an equivalent sweetness, nothing else, for this compound: CC1=CC(=O)NS(=O)(=O)O1 [Ace-K, acesulfame potassium]
**A:** 0.05

**Q:** Report sweetener concentration providing an equivalent sweetness, nothing else, for this compound: OC[C@H]1O[C@@](CO)(O[C@H]2O[C@H](CO)[C@@H](O)[C@H](O)[C@H]2O)[C@@H](O)[C@@H]1O [Sucrose, reference compound]
**A:** 15

**Q:** Report sweetener concentration providing an equivalent sweetness, nothing else, for this compound: O=C1NS(=O)(=O)c2ccccc21 [Saccharin]
**A:** 0.083

Cited source: patent US20070082061A1
